- Tested on: Escherichia coli TOP10
- test.protocol: shrunken log2 fold change of peptide-encoding DNA abundance (4.5 h post-induction vs induction); higher = less antimicrobial activity (less host growth inhibition)
- run.conditions: time post-induction: 4.5 h; library: site-saturation at positions 5, 18, 19, 20
experimental.endpoint: shrunken log2 fold change
Quick one: just the number, no unit, thanks!

Completed entries (count: 5):
seq.string: RRIRGRPPRLPRPRPRPHVKPRP
result.value: -0.0605

seq.string: RRIRDRPPRLPRPRPRPSQAPRP
result.value: 0.136

seq.string: RRIRERPPRLPRPRPRPLNKPRP
result.value: -0.47

seq.string: RRIRFRPPRLPRPRPRPTCNPRP
result.value: -0.178

seq.string: RRIRTRPPRLPRPRPRPILIPRP
result.value: -0.485

Would you kindly share the measured shrunken log2 fold change for RRIRNRPPRLPRPRPRPSYEPRP ?
-0.999

And for RRIRWRPPRLPRPRPRPFYKPRP ?
-0.658

====

- Tested on: Escherichia coli TOP10
- test.protocol: shrunken log2 fold change of peptide-encoding DNA abundance (4.5 h post-induction vs induction); higher = less antimicrobial activity (less host growth inhibition)
- run.conditions: time post-induction: 4.5 h; library: site-saturation at positions 5, 18, 19, 20
// classify(record): look up shrunken log2 fold change in ranges bin 0: < -0.07; bin 1: ≥ -0.07 and < 0.1; bin 2: ≥ 0.1

Example entries begin here.
seq.string: RRIRDRPPRLPRPRPRPHMNPRP
class.assignment: bin 1
--
seq.string: RRIRSRPPRLPRPRPRPIAYPRP
class.assignment: bin 1
--
seq.string: RRIRQRPPRLPRPRPRPMQAPRP
class.assignment: bin 2
--
seq.string: RRIRGRPPRLPRPRPRPIVWPRP
class.assignment: bin 2
--
seq.string: RRIRYRPPRLPRPRPRPWYRPRP
class.assignment: bin 2
--
seq.string: RRIRMRPPRLPRPRPRPHSVPRP
class.assignment: bin 1
--
seq.string: RRIRQRPPRLPRPRPRPLMDPRP
class.assignment: bin 1
--
seq.string: RRIRFRPPRLPRPRPRPWMPPRP
class.assignment: bin 0
--
seq.string: RRIRNRPPRLPRPRPRPQPCPRP
class.assignment: bin 1
--
seq.string: RRIRDRPPRLPRPRPRPIKQPRP
class.assignment: bin 1

Form: Item = RRIRPRPPRLPRPRPRPEWPPRP ; Class = ?
bin 2

And for RRIRVRPPRLPRPRPRPMVPPRP ?
bin 0

====

- System: Escherichia coli TOP10
- test.protocol: shrunken log2 fold change of peptide-encoding DNA abundance (4.5 h post-induction vs induction); higher = less antimicrobial activity (less host growth inhibition)
- run.conditions: time post-induction: 4.5 h; library: site-saturation at positions 5, 18, 19, 20
Known shrunken log2 fold change of a selection of sequences
Quick one: just the number, no unit, thanks!

Checklist item: shrunken log2 fold change tested on Escherichia coli TOP10, entry RRIRMRPPRLPRPRPRPRFQPRP , value?;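 also: peptides expressed intracellularly from a pBAD plasmid library in pooled LB shake-flask culture, induced with 0.3% L-arabinose, DNA abundance read by NGS, three biological replicates, DESeq2 with apeglm shrinkage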
0.268

And for RRIRKRPPRLPRPRPRPTCDPRP ?
-0.00872

And for RRIRKRPPRLPRPRPRPYQHPRP ?
-0.0857

And for RRIRARPPRLPRPRPRPGTIPRP ?
-0.0682

And for RRIRTRPPRLPRPRPRPEVTPRP ?
-0.00738

And for RRIRKRPPRLPRPRPRPSMIPRP ?
-0.0957

And for RRIRHRPPRLPRPRPRPPGYPRP ?
0.0632

And for RRIRCRPPRLPRPRPRPTLWPRP ?
0.313

And for RRIRERPPRLPRPRPRPTGIPRP ?
0.0836

And for RRIRRRPPRLPRPRPRPKHHPRP ?
0.346

And for RRIRLRPPRLPRPRPRPMTMPRP ?
0.024

And for RRIRFRPPRLPRPRPRPNRWPRP ?
0.0144

And for RRIRNRPPRLPRPRPRPQPVPRP ?
0.0704

And for RRIRQRPPRLPRPRPRPIPMPRP ?
-0.639

And for RRIRVRPPRLPRPRPRPVTCPRP ?
-0.155

And for RRIRPRPPRLPRPRPRPHHKPRP ?
-0.647

And for RRIRCRPPRLPRPRPRPGTNPRP ?
-0.15

And for RRIRMRPPRLPRPRPRPTWRPRP ?
0.894

And for RRIRFRPPRLPRPRPRPFYMPRP ?
-0.317

And for RRIRARPPRLPRPRPRPDGDPRP ?
-0.036

And for RRIRLRPPRLPRPRPRPLMAPRP ?
-0.246

And for RRIRMRPPRLPRPRPRPEMMPRP ?
0.316
